The values you see were collected from the supplement of paper PMC6897291.

- Tested on: U-2932
- assayNotes: growth inhibition by drug alone (1 - RLU/untreated control) (fraction); higher = stronger inhibition
- condition: 10 nM; time (day): 5; 177Lu-lilotomab satetraxetan 0 ug/ml
Kind request: treat -0.009 as inclusive, so growth inhibition by drug alone at -0.009 or higher is met, anything lower is not met.

Past entries and their recorded results:
**Q:** // inclusive: growth inhibition by drug alone at least -0.009? input: CCNC(=O)c1noc(-c2cc(C(C)C)c(O)cc2O)c1-c1ccc(CN2CCOCC2)cc1
**A:** not met

**Q:** // inclusive: growth inhibition by drug alone at least -0.009? input: O=C(O)C(Cc1c[nH]c2ccccc12)N1C(=O)c2ccccc2C1=O (stereo unspecified)
**A:** not met

**Q:** // inclusive: growth inhibition by drug alone at least -0.009? input: CN1C(=O)C(Cc2c[nH]c3ccccc23)NC1=S (stereo unspecified) [Necrostatin-1]
**A:** not met

**Q:** // inclusive: growth inhibition by drug alone at least -0.009? input: COc1cc2/c(=N/c3ccc(Br)cc3F)nc[nH]c2cc1OCC1CCN(C)CC1 [Vandetanib (Zactima)]
**A:** not met

**Q:** // inclusive: growth inhibition by drug alone at least -0.009? input: COc1cc2c(cc1O)CC[C@@H]1[C@@H]2CC[C@]2(C)[C@@H](O)CC[C@@H]12 [2-Methoxyestradiol]
**A:** not met

Now for another entry.
**Q:** // inclusive: growth inhibition by drug alone at least -0.009? input: CN(NC(=O)CC(=O)NN(C)C(=S)c1ccccc1)C(=S)c1ccccc1 [Elesclomol]
**A:** met
